As shown below, each of these molecules has a reported pKi value.
# Tested target: Mu-type opioid receptor (Homo sapiens)
# Sequence (P35372 whole entry): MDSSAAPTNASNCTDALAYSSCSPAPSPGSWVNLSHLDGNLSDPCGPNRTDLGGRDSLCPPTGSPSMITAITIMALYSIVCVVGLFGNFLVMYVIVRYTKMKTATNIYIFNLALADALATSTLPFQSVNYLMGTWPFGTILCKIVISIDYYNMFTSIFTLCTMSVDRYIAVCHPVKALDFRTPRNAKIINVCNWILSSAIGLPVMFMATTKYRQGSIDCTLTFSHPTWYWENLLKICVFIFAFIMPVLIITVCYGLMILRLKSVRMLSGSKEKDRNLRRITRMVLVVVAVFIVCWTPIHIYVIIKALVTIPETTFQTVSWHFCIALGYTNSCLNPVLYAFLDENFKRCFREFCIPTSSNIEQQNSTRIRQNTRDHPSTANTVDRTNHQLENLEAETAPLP
# Assay explanation: Displacement of [3H]DPN from recombinant human mu opioid receptor expressed in CHOK1 cell membranes
pKi: −log10 of the molar value.
Endpoint label: pKi

>>> print(df.to_string())
                                   molecule  endpoint_label  measured_result
0  O=C(CN1[C@@H]2CC[C@@H]1CC(c1cccc(O)c1)C2)C1CCCCC1 (relative stereo; 22b)             pKi             8.70
1  CCCCCCCN1[C@@H]2CC[C@@H]1CC(c1cccc(O)c1)C2 (relative stereo; 17a)             pKi             9.60
2  CCCCCCCN1[C@@H]2CC[C@@H]1CC(c1cccc(C(N)=O)c1)C2 (some centres undefined)             pKi             7.50
3  Oc1cccc(C2C[C@H]3CC[C@H](C2)N3Cc2c(F)cccc2F)c1 (relative stereo; 18b)             pKi             6.20

====

# Tested target: Delta-type opioid receptor (Homo sapiens, UniProt P41143)
# Sequence (P41143 whole entry): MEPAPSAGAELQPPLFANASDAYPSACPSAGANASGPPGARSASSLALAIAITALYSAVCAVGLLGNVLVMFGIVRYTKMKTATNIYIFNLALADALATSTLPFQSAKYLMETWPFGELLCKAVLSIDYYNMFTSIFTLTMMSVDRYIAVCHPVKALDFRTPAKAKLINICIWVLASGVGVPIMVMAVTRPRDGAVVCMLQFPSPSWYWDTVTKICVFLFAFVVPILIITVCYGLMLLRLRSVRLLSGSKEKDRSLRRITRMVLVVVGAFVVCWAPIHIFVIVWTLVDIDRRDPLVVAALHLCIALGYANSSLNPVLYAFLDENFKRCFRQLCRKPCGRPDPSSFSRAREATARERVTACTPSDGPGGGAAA
# Assay explanation: Displacement of [3H]DPN from recombinant human delta opioid receptor expressed in CHOK1 cell membranes
Endpoint label: Ki (nM)

>>> df
                                   compound                             tested_target  measured_result
0  NC(=O)c1cccc(C2C[C@H]3CC[C@H](C2)N3CC(=O)C2CCCCC2)c1 (relative stereo; 30a)  Delta-type opioid receptor (Homo sapiens, UniProt P41143)                2
1  O=C1c2ccccc2C(=O)N1CCCCN1[C@@H]2CC[C@@H]1CC(c1cccc(O)c1)C2 (relative stereo; 21b)  Delta-type opioid receptor (Homo sapiens, UniProt P41143)              794
2  CCCCCCCN1[C@@H]2CC[C@@H]1CC(c1cccc(C(N)=O)c1)C2 (stereo partly drawn)  Delta-type opioid receptor (Homo sapiens, UniProt P41143)              501
3  Oc1cccc(C2C[C@H]3CC[C@H](C2)N3CCCc2ccccc2)c1 (relative stereo; 12a)  Delta-type opioid receptor (Homo sapiens, UniProt P41143)            0.794
4  NC(=O)c1cccc(C2C[C@H]3CC[C@H](C2)N3CCCOc2ccccc2)c1 (stereo partly drawn)  Delta-type opioid receptor (Homo sapiens, UniProt P41143)              100
5  NC(=O)c1cccc(C2C[C@H]3CC[C@H](C2)N3CC(O)Cc2ccccc2)c1 (relative stereo)  Delta-type opioid receptor (Homo sapiens, UniProt P41143)             3.98
6  CC(C)(C)c1ccc(CN2[C@@H]3CC[C@@H]2CC(c2cccc(C(N)=O)c2)C3)cc1 (relative stereo; 28a)  Delta-type opioid receptor (Homo sapiens, UniProt P41143)             1.58
7  CC(C)(C)c1ccc(CN2[C@@H]3CC[C@@H]2CC(c2cccc(C(N)=O)c2)C3)cc1 (relative stereo; 28b)  Delta-type opioid receptor (Homo sapiens, UniProt P41143)              200

====

# Assay explanation: Half life in dog liver microsomes
# Assay type: ADME, Canis lupus familiaris, microsome
# Cond: liver microsomes
Recorded half-life values for a group of compounds are listed next.
Endpoint label: half-life

In [3]: df
Out[3]:
                                   compound  endpoint_label  measured_result
0  C[N+]1(CC2CC2)CC[C@]23c4c5ccc(O)c4O[C@H]2C(=O)CC[C@@]3(O)[C@H]1C5 (some centres not stated) [METHYLNALTREXONE]       half-life         > 90 min
1  Oc1cccc(C2C[C@H]3CC[C@H](C2)N3CCCc2ccccc2)c1 (relative stereo; 12a)       half-life            2 min
2  NC(=O)c1cccc(C2C[C@H]3CC[C@H](C2)N3Cc2c(F)cccc2F)c1 (relative stereo; 26a)       half-life         > 90 min
3  NC(=O)c1cccc(C2C[C@H]3CC[C@H](C2)N3CCCCN2C(=O)c3ccccc3C2=O)c1 (relative stereo; 29a)       half-life           18 min
4  NC(=O)c1cccc(C2C[C@H]3CC[C@H](C2)N3CCCOc2ccccc2)c1 (relative stereo)       half-life            7 min
5  CC(C)(C)c1ccc(CN2[C@@H]3CC[C@@H]2CC(c2cccc(C(N)=O)c2)C3)cc1 (relative stereo; 28a)       half-life         > 90 min
6  CC(C)(C)c1ccc(CN2[C@@H]3CC[C@@H]2CC(c2cccc(O)c2)C3)cc1 (relative stereo; 20a)       half-life            5 min

Values from ChEMBL document CHEMBL4020770
